test system: 377384-186-R-J1-PDC complex spheroid viability; test: Anticancer human tumor 377384-186-R-J1-PDC patient-derived pancreatic carcinoma cell line growth inhibition [RAS]; conditions: second compound 0.00949 µM; first compound 0.0316 µM; active compounds read low
Threshold 4%: viability, T/C strictly smaller gives True, otherwise False.

>>> class_assignment("C=CC(=O)N1CCN(c2nc(OCC3CCCN3C)nc3c(F)c(-c4nc(N)cc(C)c4C(F)(F)F)c(Cl)cc23)C(C)C1 (stereo not given) + CCn1c(-c2cc(N3CCN(C)CC3)cnc2C(C)OC)c2c3cc(ccc31)-c1csc(n1)CC(NC(=O)C1CC1C)C(=O)N1CCCC(N1)C(=O)OCC(C)(C)C2")
"False"
>>> class_assignment("NC1c2ccccc2OC12CCN(c1cnc3c(N4CCCc5ncccc54)n[nH]c3n1)CC2 (stereo not given) + CCn1c(-c2cccnc2C(C)OC)c2c3cc(ccc31)N1CCOC(CC(NC(=O)C(C(C)C)N(C)C(=O)C3(F)CCN(C(=O)C#CC(C)(C)N(C)C)CC3)C(=O)N3CCCC(N3)C(=O)OCC(C)(C)C2)C1")
"False"
>>> class_assignment("CC(C)NCC(C(=O)N1CCN(c2ncnc3c2C(C)CC3O)CC1)c1ccc(Cl)cc1 (stereo not given) + CCn1c(-c2cc(N3CCN(C)CC3)cnc2C(C)OC)c2c3cc(ccc31)-c1csc(n1)CC(NC(=O)C1CC1C)C(=O)N1CCCC(N1)C(=O)OCC(C)(C)C2")
"False"
>>> class_assignment("CC(Nc1ccc2c(c1)OCCn1cc(N3C(=O)OCC3C(F)F)nc1-2)C(N)=O (stereo not given) + CCn1c(-c2cc(N3CCN(C)CC3)cnc2C(C)OC)c2c3cc(ccc31)-c1csc(n1)CC(NC(=O)C1CC1C)C(=O)N1CCCC(N1)C(=O)OCC(C)(C)C2")
"False"
>>> class_assignment("Cc1nc(N2CCC3(CC2)COC(C)C3N)c(CO)nc1Sc1ccnc(N)c1Cl (stereo not given) + CCn1c(-c2cc(N3CCN(C)CC3)cnc2C(C)OC)c2c3cc(ccc31)-c1csc(n1)CC(NC(=O)C1CC1C)C(=O)N1CCCC(N1)C(=O)OCC(C)(C)C2")
"True"

====

system: 377384-186-R-J1-PDC complex spheroid viability; experiment: Anticancer human tumor 377384-186-R-J1-PDC cell line growth inhibition [RAS]; conditions: second compound 0.03 µM; first compound 0.0949 µM; active compounds read low;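 further: spheroids exposed to compounds for seven days before readout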
# viability, T/C per record follows
test-readout: viability, T/C (%)

>>> number("CCc1c2c(nc3ccc(O)cc13)-c1cc3c(c(=O)n1C2)COC(=O)[C@]3(O)CC + CCn1c(-c2cc(N3CCN(C)CC3)cnc2C(C)OC)c2c3cc(ccc31)-c1csc(n1)CC(NC(=O)C1CC1C)C(=O)N1CCCC(N1)C(=O)OCC(C)(C)C2")
1.98
>>> number("CC1(C)CCC(Nc2ncc(C(F)(F)F)c(-c3c[nH]c4c(P(C)(C)=O)c(C#N)ccc34)n2)CN1 (centres undefined) + CCn1c(-c2cccnc2C(C)OC)c2c3cc(ccc31)N1CCOC(CC(NC(=O)C(C(C)C)N(C)C(=O)C3(F)CCN(C(=O)C#CC(C)(C)N(C)C)CC3)C(=O)N3CCCC(N3)C(=O)OCC(C)(C)C2)C1")
19.3
>>> number("CCc1c2c(nc3ccc(O)cc13)-c1cc3c(c(=O)n1C2)COC(=O)[C@]3(O)CC + CCn1c(-c2cccnc2C(C)OC)c2c3cc(ccc31)N1CCOC(CC(NC(=O)C(C(C)C)N(C)C(=O)C3(F)CCN(C(=O)C#CC(C)(C)N(C)C)CC3)C(=O)N3CCCC(N3)C(=O)OCC(C)(C)C2)C1")
3.55
>>> number("CC1(C)CCC(Nc2ncc(C(F)(F)F)c(-c3c[nH]c4c(P(C)(C)=O)c(C#N)ccc34)n2)CN1 (centres undefined) + CCn1c(-c2cc(N3CCN(C)CC3)cnc2C(C)OC)c2c3cc(ccc31)-c1csc(n1)CC(NC(=O)C1CC1C)C(=O)N1CCCC(N1)C(=O)OCC(C)(C)C2")
2.03
